target: Tyrosine-protein kinase ABL2 (Homo sapiens) (UniProt P42684); settings: at 0.1 µM;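 further: values are mean percent inhibition of ARG (ABL2), measured within the GSK PKIS set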
Sequence (P42684 whole entry): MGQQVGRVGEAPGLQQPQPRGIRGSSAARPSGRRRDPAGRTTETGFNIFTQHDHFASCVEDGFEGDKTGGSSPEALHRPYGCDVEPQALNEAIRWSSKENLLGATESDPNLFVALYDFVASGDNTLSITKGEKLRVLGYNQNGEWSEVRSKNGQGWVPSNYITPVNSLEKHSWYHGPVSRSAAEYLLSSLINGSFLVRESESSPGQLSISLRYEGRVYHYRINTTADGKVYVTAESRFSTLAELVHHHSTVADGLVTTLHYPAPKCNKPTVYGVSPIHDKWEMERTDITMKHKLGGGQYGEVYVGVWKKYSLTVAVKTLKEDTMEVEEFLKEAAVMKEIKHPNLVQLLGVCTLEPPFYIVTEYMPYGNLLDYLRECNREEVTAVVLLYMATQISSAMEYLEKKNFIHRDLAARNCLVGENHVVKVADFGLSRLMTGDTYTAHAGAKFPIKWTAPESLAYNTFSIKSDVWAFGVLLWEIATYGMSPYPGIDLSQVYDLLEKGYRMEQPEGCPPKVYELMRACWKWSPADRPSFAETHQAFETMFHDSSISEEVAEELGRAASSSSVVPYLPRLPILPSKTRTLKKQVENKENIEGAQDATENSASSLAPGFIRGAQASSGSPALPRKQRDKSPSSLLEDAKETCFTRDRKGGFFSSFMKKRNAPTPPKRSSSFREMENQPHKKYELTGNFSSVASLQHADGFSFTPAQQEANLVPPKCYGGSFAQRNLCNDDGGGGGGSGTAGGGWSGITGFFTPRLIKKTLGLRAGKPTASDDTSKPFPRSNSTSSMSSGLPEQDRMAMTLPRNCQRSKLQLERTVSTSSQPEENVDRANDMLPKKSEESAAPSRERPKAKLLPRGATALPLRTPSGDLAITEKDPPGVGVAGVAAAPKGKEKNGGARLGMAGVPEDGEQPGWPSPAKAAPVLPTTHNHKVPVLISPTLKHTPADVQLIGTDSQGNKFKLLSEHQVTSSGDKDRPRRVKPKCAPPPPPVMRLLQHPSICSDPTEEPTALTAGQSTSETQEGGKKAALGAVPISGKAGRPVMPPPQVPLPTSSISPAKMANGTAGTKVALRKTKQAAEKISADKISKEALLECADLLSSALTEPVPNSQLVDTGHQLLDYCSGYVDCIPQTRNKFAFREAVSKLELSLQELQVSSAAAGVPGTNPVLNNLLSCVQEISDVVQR
Entries and their inhibition values follow.
Value expressed in %; do not type the unit.

compound: CCCN1CCC=C(c2ccc(Nc3nc(Nc4ccccc4C(N)=O)c4cc[nH]c4n3)c(C)c2)C1
inhibition / %: 10
//
compound: N#Cc1c(NC(=O)c2cccc3ccccc23)sc2c1CCCC2
inhibition / %: 3.88

Measured inhibition of Cc1cc(O)cc(C)c1/C=C/c1cncc(-c2nn[nH]n2)c1 : 19.9

Measured inhibition of CC1=C(C(=O)Nc2ccc3[nH]ncc3c2)C(c2ccc(Cl)c(Cl)c2)CC(=O)N1 (stereo not given) : 2.19

* * *

Entries and their inhibition values follow.
tested on: Platelet-derived growth factor receptor alpha (Homo sapiens), P16234 [D842V]; conditions: at 0.1 µM
Sequence (P16234 whole entry D842V): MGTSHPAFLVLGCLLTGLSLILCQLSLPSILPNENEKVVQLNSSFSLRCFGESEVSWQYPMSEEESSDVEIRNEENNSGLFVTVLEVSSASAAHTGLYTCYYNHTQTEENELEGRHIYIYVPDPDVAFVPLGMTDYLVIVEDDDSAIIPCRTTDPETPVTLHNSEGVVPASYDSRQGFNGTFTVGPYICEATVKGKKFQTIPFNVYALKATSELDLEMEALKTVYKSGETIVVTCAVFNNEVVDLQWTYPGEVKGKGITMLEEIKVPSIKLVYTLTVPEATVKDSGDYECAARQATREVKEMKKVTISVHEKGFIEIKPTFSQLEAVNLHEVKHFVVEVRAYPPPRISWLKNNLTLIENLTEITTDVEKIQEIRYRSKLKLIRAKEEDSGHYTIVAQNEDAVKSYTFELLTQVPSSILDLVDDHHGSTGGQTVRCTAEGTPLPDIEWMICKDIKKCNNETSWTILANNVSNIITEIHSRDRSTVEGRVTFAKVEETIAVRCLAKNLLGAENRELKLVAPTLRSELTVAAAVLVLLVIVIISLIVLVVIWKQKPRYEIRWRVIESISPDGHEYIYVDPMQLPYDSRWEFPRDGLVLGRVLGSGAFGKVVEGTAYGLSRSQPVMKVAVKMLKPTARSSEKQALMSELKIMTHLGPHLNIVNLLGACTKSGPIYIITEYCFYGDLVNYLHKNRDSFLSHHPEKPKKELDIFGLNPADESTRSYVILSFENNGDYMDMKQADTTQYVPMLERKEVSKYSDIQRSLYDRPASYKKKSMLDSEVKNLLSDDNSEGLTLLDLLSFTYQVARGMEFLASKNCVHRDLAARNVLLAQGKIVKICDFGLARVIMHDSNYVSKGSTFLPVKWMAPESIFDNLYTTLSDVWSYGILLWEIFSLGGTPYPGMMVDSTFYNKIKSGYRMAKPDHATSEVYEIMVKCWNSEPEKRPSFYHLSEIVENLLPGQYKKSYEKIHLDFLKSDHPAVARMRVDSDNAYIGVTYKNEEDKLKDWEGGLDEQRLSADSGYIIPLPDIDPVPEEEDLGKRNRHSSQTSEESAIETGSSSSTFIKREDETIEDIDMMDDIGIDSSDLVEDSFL
Value expressed in %; do not type the unit.

Measured inhibition of [O-][S+]1CCN(Cc2ccc(-c3ccc4ncnc(Nc5ccc(OCc6ccccc6)c(F)c5)c4c3)o2)CC1 : 2.67

Measured inhibition of Fc1cccc(COc2ccc(Nc3ncnc4sc(-c5cccs5)cc34)cc2Cl)c1 : 1.25

Measured inhibition of COc1ccc(-c2nn3ncccc3c2-c2ccnc(Nc3ccc(Cl)c(C(F)(F)F)c3)n2)cc1 : 0.96

Measured inhibition of O=C1NC(=O)C(c2ccccc2Cl)=C1Nc1cccc(O)c1 : 0.89

Measured inhibition of O=C(Nc1n[nH]c2nc(-c3ccco3)c(Br)cc12)C1CC1 : 0.77

Measured inhibition of COc1cc2c(cc1Nc1nc(N3CCc4ccccc43)c3cc[nH]c3n1)N(C(=O)CN(C)C)CC2 : 0.92

Measured inhibition of NC(=O)c1ccc(-c2nc(-c3ccccn3)c(-c3ccc4c(c3)OCO4)[nH]2)cc1 : 1.44

* * *

molecular target: Fibroblast growth factor receptor 3 (Homo sapiens); settings: at 1 µM;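 further: values reported are mean percent inhibition of FGFR3 activity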
Could you label it condition met if measured inhibition is 4% or higher, and condition not met otherwise?

Record excerpt, results attached:
compound: NC(=O)c1cccc(Nc2nccc(Nc3cccc4[nH]ncc34)n2)c1
label: condition met
//
compound: CCn1c(-c2nonc2N)nc2cnc(Oc3cccc(NC(=O)c4ccc(OCCN5CCOCC5)cc4)c3)cc21
label: condition not met
//
compound: Cn1cc(C=C2C(=O)Nc3cccnc32)c2ccccc21
label: condition met
//
compound: CC1=C(C(=O)Nc2ccc3[nH]ncc3c2)C(c2ccc(Cl)c(Cl)c2)CC(=O)N1 (stereo unspecified)
label: condition met

Now turn to the next compound.
Does CS(=O)(=O)CCNCc1ccc(-c2ccc3ncnc(Nc4ccc(OCc5cccc(F)c5)c(C(F)(F)F)c4)c3c2)o1 have a reported inhibition of at least 4%? condition not met

* * *

Entries and their inhibition values follow.
tested on: Platelet-derived growth factor receptor alpha (Homo sapiens), P16234 [D842V]; conditions: at 0.1 µM

molecule: COc1cccc(-n2ncc3c(N/N=C/c4cccc(F)c4)ncnc32)c1
inhibition: 10.6%
//
molecule: COc1cc(C=NNc2ncnc3c2cnn3-c2ccccc2)ccc1O
inhibition: 24.6%
//
molecule: COc1ccc(-c2coc3ncnc(N)c23)cc1
inhibition: 3.41%

Measured inhibition of CS(=O)(=O)CCNCc1nc(-c2ccc3ncnc(Nc4ccc(F)c(Cl)c4)c3c2)cs1 : 1.4%

Measured inhibition of COc1ccc2cc(-c3c(-c4ccncc4)nc(-c4ccc([S+](C)[O-])cc4)n3C)ccc2c1 (configuration not stated) : 2.12%

Measured inhibition of CC(C)=Cc1cccc2c1/C(=N/Nc1ccc(S(N)(=O)=O)cc1)C(=O)N2 : 12.2%

Measured inhibition of CCn1c(-c2nonc2N)nc2c(C#CC(C)(C)O)nc(CN3CCCC3)cc21 : 3.09%

Measured inhibition of COc1cc2ncn(-c3cc(O[C@@H](C)c4ccccc4Cl)c(C(N)=O)s3)c2cc1OC : 27%

Measured inhibition of CC1=C(C(=O)Nc2ccc3[nH]ncc3c2)C(c2ccc(Cl)c(Cl)c2)CC(=O)N1 (configuration not stated) : 0.72%
